meta.source: patent US20090143279A1

Tested on: cellular dehydrogenase activity
test settings: normalized composite Z-score vs mock-treated (DMSO) wells; Conc 20 μM
quantity name: MTT

INSERT INTO assay_data (compound, measurement) VALUES
  ('C[C@H](CCC(=O)O)[C@H]1CC[C@H]2[C@@H]3CCC4CCCC[C@]4(C)[C@H]3C=C[C@]12C (some centres unmarked)', '−1.164'),
  ('CC(=O)O[C@@H]1CC2C(C)(C)[C@H](O)CC[C@]2(C)C2CC[C@@]3(C)[C@H](c4ccoc4)OC(=O)C4OC43[C@@]21C (stereo partly drawn) [3alpha-hydroxydeoxodihydrogedunin]', '−1.072'),
  ('OC[C@H]1O[C@@H](O[C@H]2[C@H](O)[C@@H](O)[C@H](O)O[C@@H]2CO)[C@H](O)[C@@H](O)[C@@H]1O [cellobiose (D[+])]', 0.411),
  ('C=C1CCC(C2CC(=O)OC2=O)C(=O)CCC2C1CC2(C)C (centres unmarked)', '−0.968'),
  ('CC1=C(/C=C/C(C)=C/C=C/C(C)=C/C=C/C=C(C)/C=C/C=C(C)/C=C/[C@@]23O[C@]2(C)C[C@@H](O)CC3(C)C)C(C)(C)C[C@H](O)C1', '−0.804'),
  ('CC1(C)C(=O)C=C[C@]2(C)[C@H]3CC[C@@]4(C)[C@H](c5ccoc5)OC(=O)[C@H]5O[C@]54[C@]3(C)C=C[C@@H]12 [7-desacetoxy-6,7-dehydrogedunin]', '−1.891'),
  ('C=C1C(N)CC2CC1C2(C)C (centres unmarked)', '−0.906'),
  ('CC1(C)CC2C1CC[C@]1(CBr)CCC3C(CC(=O)O)C(=O)O[C@@]32C1 (some centres unmarked)', '−0.892');
